targetOrTestSystem: Substance-K receptor (Cavia porcellus) (UniProt Q64077)
Sequence (Q64077 whole entry): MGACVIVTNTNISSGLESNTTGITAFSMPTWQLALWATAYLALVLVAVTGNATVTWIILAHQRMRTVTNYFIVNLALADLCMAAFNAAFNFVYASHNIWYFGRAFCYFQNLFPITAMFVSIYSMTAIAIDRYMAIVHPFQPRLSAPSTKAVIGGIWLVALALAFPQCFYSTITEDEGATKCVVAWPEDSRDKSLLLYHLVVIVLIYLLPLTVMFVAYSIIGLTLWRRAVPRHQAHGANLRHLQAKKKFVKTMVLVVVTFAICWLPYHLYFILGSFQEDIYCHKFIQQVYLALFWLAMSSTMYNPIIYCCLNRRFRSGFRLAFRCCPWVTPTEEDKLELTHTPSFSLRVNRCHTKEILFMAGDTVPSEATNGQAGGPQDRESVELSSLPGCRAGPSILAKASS
methodDescription: Antagonistic activity against Tachykinin receptor 2 binding to [b-Ala8] NKA(4-10) in isolated guinea pig trachea
outcomeMeasure: pKb

# compound, outcomeMeasure, resultNumber
measured = [
    ("CN(C[C@H](CCN1CCC(O)(c2ccccc2)CC1)c1ccc(Cl)c(Cl)c1)C(=O)c1ccc(NC(=O)CBr)cc1", "pKb", 8.3),
    ("CN(C[C@H](CCN1CCC(O)(c2ccccc2)CC1)c1ccc(Cl)c(Cl)c1)C(=O)c1ccc(F)cc1", "pKb", 9.7),
    ("CC(=O)NC1(c2ccccc2)CCN(CCC(CN(C)C(=O)c2ccccc2)c2ccc(Cl)c(Cl)c2)CC1 (single isomer, unassigned)", "pKb", 9.1),
    ("CN(C[C@H](CCN1CCC(O)(c2ccccc2)CC1)c1ccc(Cl)c(Cl)c1)C(=O)c1ccccc1[N+](=O)[O-]", "pKb", 8.5),
    ("CN(C[C@H](CCN1CCC(O)(c2ccccc2)CC1)c1ccc(Cl)c(Cl)c1)C(=O)c1ccc(N)cc1", "pKb", 9.1),
    ("CN(C[C@H](CCN1CCC(O)(c2ccccc2)CC1)c1ccc(Cl)c(Cl)c1)C(=O)c1ccccc1N", "pKb", 9.4),
    ("CN(C[C@H](CCN1CCC(O)(c2ccccc2)CC1)c1ccc(Cl)c(Cl)c1)C(=O)c1ccc([N+](=O)[O-])cc1", "pKb", 8.55),
    ("CN(C[C@H](CCN1CCC(O)(c2ccccc2)CC1)c1ccc(Cl)c(Cl)c1)C(=O)c1cccc(N)c1", "pKb", 9.4),
    ("CC(=O)Nc1ccc(C(=O)N(C)C[C@H](CCN2CCC(O)(c3ccccc3)CC2)c2ccc(Cl)c(Cl)c2)cc1", "pKb", 8.4),
    ("CN(C[C@H](CCN1CCC(O)(c2ccccc2)CC1)c1ccc(Cl)c(Cl)c1)C(=O)c1ccccc1N=C=S", "pKb", 8.5),
]

Recorded values, source ChEMBL document CHEMBL1137857.
